# Measured on: JAK2 (Homo sapiens, UniProt O60674)
# Sequence (O60674 whole entry, species assumed): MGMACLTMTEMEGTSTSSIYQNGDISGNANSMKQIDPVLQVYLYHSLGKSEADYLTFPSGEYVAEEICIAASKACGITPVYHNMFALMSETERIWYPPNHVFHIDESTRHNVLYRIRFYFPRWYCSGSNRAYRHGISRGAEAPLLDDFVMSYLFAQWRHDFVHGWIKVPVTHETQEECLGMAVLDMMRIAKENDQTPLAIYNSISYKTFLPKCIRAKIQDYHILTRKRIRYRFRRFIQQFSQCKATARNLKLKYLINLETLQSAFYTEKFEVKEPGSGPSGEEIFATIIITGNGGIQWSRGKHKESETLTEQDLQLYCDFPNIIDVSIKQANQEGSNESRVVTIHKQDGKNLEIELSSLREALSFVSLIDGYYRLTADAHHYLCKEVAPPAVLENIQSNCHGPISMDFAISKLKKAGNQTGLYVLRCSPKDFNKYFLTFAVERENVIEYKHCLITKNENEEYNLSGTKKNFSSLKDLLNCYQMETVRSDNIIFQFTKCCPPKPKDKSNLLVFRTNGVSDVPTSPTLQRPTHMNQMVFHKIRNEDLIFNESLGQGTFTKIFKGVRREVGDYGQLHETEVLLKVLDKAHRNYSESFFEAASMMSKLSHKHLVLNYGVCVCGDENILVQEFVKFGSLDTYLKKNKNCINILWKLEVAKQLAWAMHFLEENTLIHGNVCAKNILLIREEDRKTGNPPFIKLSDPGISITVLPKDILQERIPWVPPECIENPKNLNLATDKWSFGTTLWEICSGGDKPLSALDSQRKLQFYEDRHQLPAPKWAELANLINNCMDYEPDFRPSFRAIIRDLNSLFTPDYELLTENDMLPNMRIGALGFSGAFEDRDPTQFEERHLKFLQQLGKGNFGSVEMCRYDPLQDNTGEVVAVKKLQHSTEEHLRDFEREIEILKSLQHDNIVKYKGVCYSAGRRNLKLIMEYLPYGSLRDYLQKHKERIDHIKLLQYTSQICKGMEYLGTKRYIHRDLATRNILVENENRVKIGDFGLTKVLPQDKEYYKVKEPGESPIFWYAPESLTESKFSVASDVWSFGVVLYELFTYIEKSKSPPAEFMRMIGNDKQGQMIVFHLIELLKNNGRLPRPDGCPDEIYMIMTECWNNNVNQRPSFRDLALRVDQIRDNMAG
# Test description: JAK kinase assay, JAK2 enzyme;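 further: JAK2 kinase reaction run 75 min at room temperature, leftover ATP read by Kinase-Glo luminescence, 11-point dilution series in 2.5% DMSO, percent of inhibitor-free DMSO control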
# Assay type: biochemical
# Assay context: Table 15; in brackets in the activity cell; read-out: JAK2 activity
Entries and their Ki

# Molecule, Measured on, Ki
records = [
    ("CC(C)(C)OC(=O)N1CCC(CNC(=O)c2ccc(C3CC3C(=O)Nc3ccc4cnccc4c3)cc2)CC1 (centres unmarked)", "JAK2 (Homo sapiens, UniProt O60674)", "1000 to 6000 nM"),
]

Q: Value wanted: Ki (JAK2 (Homo sapiens, UniProt O60674)) of entry O=C(NCc1cccnc1)c1ccc(C2CC2C(=O)Nc2ccc3cnccc3c2F)cc1 (centres unmarked)
Result: 300 to 950 nM

Q: Value wanted: Ki (JAK2 (Homo sapiens, UniProt O60674)) of entry O=C(NCc1ccc(C(F)(F)F)cc1)c1ccc(C2CC2C(=O)Nc2ccc3cnccc3c2)cc1 (centres unmarked)
Result: 2500 to 9000 nM

Q: Value wanted: Ki (JAK2 (Homo sapiens, UniProt O60674)) of entry O=C(Nc1ccccc1Cl)OCc1ccc(C2CC2C(=O)Nc2ccc3cnccc3c2)cc1 (centres unmarked)
Result: 1300 to 2700 nM

Q: Value wanted: Ki (JAK2 (Homo sapiens, UniProt O60674)) of entry O=C(NCc1cccnc1)c1ccc(C2CC2C(=O)Nc2ccc3cncc(F)c3c2)cc1 (centres unmarked)
Result: 75 to 110 nM
